- Assay: Partition coefficient, log D at pH 7.4
- Format: physicochemical
- Condition description: octanol/water
Quantity name: logD
One number for each entry.

I'd like to know its logD. The compound in question is CS(=O)(=O)Nc1c(Cl)ccc2c1CCCC2c1ncc[nH]1 (stereo unspecified)
1.5

###

- Study target: UniProt P25100
- Sequence (P25100 whole entry): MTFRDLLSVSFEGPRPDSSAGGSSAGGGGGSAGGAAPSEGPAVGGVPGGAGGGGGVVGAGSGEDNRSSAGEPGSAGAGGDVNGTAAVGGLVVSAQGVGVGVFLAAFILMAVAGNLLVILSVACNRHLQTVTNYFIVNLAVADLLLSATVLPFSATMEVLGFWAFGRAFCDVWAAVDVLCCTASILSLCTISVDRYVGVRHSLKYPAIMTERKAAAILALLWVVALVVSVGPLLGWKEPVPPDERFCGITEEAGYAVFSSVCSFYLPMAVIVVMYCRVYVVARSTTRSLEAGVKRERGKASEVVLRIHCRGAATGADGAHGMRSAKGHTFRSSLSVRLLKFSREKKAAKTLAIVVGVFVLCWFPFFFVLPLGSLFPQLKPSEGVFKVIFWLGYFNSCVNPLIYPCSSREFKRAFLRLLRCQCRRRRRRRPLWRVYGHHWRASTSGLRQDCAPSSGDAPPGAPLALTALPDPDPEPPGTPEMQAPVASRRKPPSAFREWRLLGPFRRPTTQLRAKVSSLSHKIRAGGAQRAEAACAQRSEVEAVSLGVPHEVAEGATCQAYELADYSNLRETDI
- Assay: Agonist activity at human cloned adrenergic Alpha-1D receptor expressed in CHO cells assessed as calcium mobilization by FLIPR
- Format: functional, cell-based
Hi there, I'd appreciate the recorded EC50 for every entry that follows.

compound="c1ccc2c(c1)CCCC2c1ncc[nH]1 (centres undefined)" quantity_name=EC50 test_value="0.364 µM"
compound="COc1cccc2c1CCC2c1ncc[nH]1 (centres undefined)" quantity_name=EC50 test_value="> 10 µM"
compound="c1cc(-c2nccs2)c2c(c1)C(c1ncc[nH]1)CC2 (centres undefined)" quantity_name=EC50 test_value="3.19 µM"
compound="CS(=O)(=O)Nc1cccc2c1CCCC2c1ncc[nH]1 (stereo in doubt; 17b)" quantity_name=EC50 test_value="> 10 µM"
compound="CCCS(=O)(=O)Nc1cccc2c1CCC2c1ncc[nH]1 (centres undefined)" quantity_name=EC50 test_value="> 10 µM"
compound=Cc1c(OCC2=NCCN2)ccc(Cl)c1NS(C)(=O)=O quantity_name=EC50 test_value="> 10 µM"

Batch request: EC50 for each of the following compounds.
1. CNC(=O)c1cccc2c1CCC2c1ncc[nH]1 (centres undefined)
2. Cc1ccc2c(c1NS(C)(=O)=O)CCC2c1ncc[nH]1 (centres undefined)
3. Clc1ccc2c(c1-c1ccn[nH]1)CCC2c1ncc[nH]1 (centres undefined)
4. Cn1cc(-c2cccc3c2CCC3c2ncc[nH]2)cn1 (centres undefined)
5. c1cc(-c2ncco2)c2c(c1)C(c1ncc[nH]1)CC2 (centres undefined)
6. c1cc(-c2cc[nH]n2)c2c(c1)C(c1ncc[nH]1)CC2 (centres undefined)
7. COc1c(Cl)ccc2c1CCC2c1ncc[nH]1 (centres undefined)

1. > 10 µM
2. > 10 µM
3. > 10 µM
4. > 10 µM
5. 1.39 µM
6. 0.336 µM
7. > 10 µM

I'd like to know its EC50. The compound in question is Clc1ccc2c(c1-c1cn[nH]c1)CCC2c1ncc[nH]1 (centres undefined)
> 10 µM

###

- Study target: Alpha-2A adrenergic receptor (Homo sapiens, UniProt P08913)
- Sequence (P08913 whole entry): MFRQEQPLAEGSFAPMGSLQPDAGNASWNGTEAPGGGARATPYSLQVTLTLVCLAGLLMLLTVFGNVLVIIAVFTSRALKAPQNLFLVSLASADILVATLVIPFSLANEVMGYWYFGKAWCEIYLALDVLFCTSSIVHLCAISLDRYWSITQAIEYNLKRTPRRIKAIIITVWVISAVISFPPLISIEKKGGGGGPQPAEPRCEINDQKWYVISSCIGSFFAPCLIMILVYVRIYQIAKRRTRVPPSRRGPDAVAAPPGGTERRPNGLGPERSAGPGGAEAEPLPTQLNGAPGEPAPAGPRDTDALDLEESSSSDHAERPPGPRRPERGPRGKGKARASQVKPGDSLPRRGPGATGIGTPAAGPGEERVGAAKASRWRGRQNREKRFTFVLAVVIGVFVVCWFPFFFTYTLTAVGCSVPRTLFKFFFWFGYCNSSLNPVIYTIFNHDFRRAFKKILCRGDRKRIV
- Assay: Agonist activity at human cloned adrenergic alpha-2A receptor expressed in CHOK1 cells by beta-lactamase reporter gene assay
- Assay type: functional, cell-based, CHO-K1
Hi there, I'd appreciate the recorded EC50 for every entry that follows.

Example entries and their recorded answers appear below.
compound="Cn1cc(-c2cccc3c2CCC3c2ncc[nH]2)cn1 (stereo unspecified)" quantity_name=EC50 test_value="> 10 µM"
compound="COc1cccc2c1CCC2c1ncc[nH]1 (stereo unspecified)" quantity_name=EC50 test_value="0.027 µM"
compound="CS(=O)(=O)Nc1c(Cl)ccc2c1CCCC2c1ncc[nH]1 (stereo unspecified)" quantity_name=EC50 test_value="> 10 µM"
compound="COc1c(C)ccc2c1CCC2c1ncc[nH]1 (stereo unspecified)" quantity_name=EC50 test_value="0.327 µM"
compound="CCS(=O)(=O)Nc1cccc2c1CCC2c1ncc[nH]1 (stereo unspecified)" quantity_name=EC50 test_value="> 10 µM"

Batch request: EC50 for each of the following compounds.
1. c1ccc2c(c1)CCCC2c1ncc[nH]1 (stereo unspecified)
2. Cc1[nH]ncc1-c1cccc2c1CCC2c1ncc[nH]1 (stereo unspecified)
3. Cn1ccc(-c2cccc3c2CCC3c2ncc[nH]2)n1 (stereo unspecified)
4. Clc1ccc2c(c1-c1cn[nH]c1)CCC2c1ncc[nH]1 (stereo unspecified)
5. Cn1nccc1-c1cccc2c1CCC2c1ncc[nH]1 (stereo unspecified)
6. CS(=O)(=O)Nc1cccc2c1CCCC2c1ncc[nH]1 (stereo in doubt; 17b)

1. 0.722 µM
2. > 10 µM
3. > 10 µM
4. > 10 µM
5. > 10 µM
6. > 10 µM
